Where do these numbers come from? They come from patent US20010039287A1.

settings: Rat Intravenous 20 mpk
Where a name gives a salt, the structure may show the parent alone.
measure name: t½ Hour (h)
Please respond with the number in h and leave the unit unwritten.

Please give measured t½ Hour of the following entry: O=C(NO)C1(S(=O)(=O)c2ccc(Oc3ccc(C(F)(F)F)cc3)cc2)CCN(CCN2CCOCC2)CC1 [Example 388, Dihydrochloride]
0.94

Please give measured t½ Hour of the following entry: CN1CCC(C(=O)NO)(S(=O)(=O)c2ccc(Sc3ccccc3)cc2)CC1.Cl
1.91

Please give measured t½ Hour of the following entry: O=C(NO)C1(S(=O)(=O)c2ccc(Oc3ccccc3)cc2)CCOCC1
1.71

Please give measured t½ Hour of the following entry: O=C(NO)C1(S(=O)(=O)c2ccc(Oc3ccc(C(F)(F)F)cc3)cc2)CCN(Cc2ccccn2)CC1 [Example 391, Dihydrochloride]
1.45

Please give measured t½ Hour of the following entry: COCCN1CCC(C(=O)NO)(S(=O)(=O)c2ccc(Oc3ccc(C(F)(F)F)cc3)cc2)CC1.Cl
2.42

Please give measured t½ Hour of the following entry: CCN1CCC(C(=O)NO)(S(=O)(=O)c2ccc(OCc3ccc(C(F)(F)F)cc3)cc2)CC1.Cl
2.14

Please give measured t½ Hour of the following entry: C#CCN1CCC(C(=O)NO)(S(=O)(=O)c2ccc(Oc3ccc(C)c(C)c3)cc2)CC1.Cl
0.82

* * *

Assign IC50 to each entry below.
target: recombinant human MMP-13 (Homo sapiens); assay: biochemical; conditions: Inhibition Table B; read-out: MMP-13 IC50
Structures can show the parent of a compound that is named as a salt.
Please respond with the number in nM and leave the unit unwritten.

Please give measured IC50 of the following entry: O=C(NO)C1(S(=O)(=O)c2ccc(Oc3ccc(F)c(Cl)c3)cc2)CCOCC1
0.4

Please give measured IC50 of the following entry: Cc1ccc(Oc2ccc(S(=O)(=O)C3(C(=O)NO)CCOCC3)cc2)cn1 [Example 97, Monohydrochloride]
16.7

Please give measured IC50 of the following entry: Cl.O=C(NO)C1(S(=O)(=O)c2ccc(Oc3ccc(-n4cncn4)cc3)cc2)CCS(=O)(=O)CC1 [Example 53, Monohydrochloride]
1.5

Please give measured IC50 of the following entry: Cc1cccc(Oc2ccc(S(=O)(=O)C3(C(=O)NO)CCOCC3)cc2)n1
23.4

Please give measured IC50 of the following entry: O=C(NO)C1(S(=O)(=O)c2ccc(N3CCC(Oc4ccc5c(c4)OCO5)CC3)cc2)CCOCC1 [Example 63, Monohydrochloride]
1.5

Please give measured IC50 of the following entry: COc1ccc(Oc2ccc(S(=O)(=O)C3(C(=O)NO)CCOCC3)cc2)cc1
0.15

Please give measured IC50 of the following entry: CCOC(=O)N1CCN(c2ccc(S(=O)(=O)C3(C(=O)NO)CCOCC3)cc2)CC1
10

* * *

target: recombinant human MMP-9 (Homo sapiens, UniProt P14780); assay: biochemical; conditions: Inhibition Table B; read-out: MMP-9 IC50
Sequence (P14780 107-707 limits assumed): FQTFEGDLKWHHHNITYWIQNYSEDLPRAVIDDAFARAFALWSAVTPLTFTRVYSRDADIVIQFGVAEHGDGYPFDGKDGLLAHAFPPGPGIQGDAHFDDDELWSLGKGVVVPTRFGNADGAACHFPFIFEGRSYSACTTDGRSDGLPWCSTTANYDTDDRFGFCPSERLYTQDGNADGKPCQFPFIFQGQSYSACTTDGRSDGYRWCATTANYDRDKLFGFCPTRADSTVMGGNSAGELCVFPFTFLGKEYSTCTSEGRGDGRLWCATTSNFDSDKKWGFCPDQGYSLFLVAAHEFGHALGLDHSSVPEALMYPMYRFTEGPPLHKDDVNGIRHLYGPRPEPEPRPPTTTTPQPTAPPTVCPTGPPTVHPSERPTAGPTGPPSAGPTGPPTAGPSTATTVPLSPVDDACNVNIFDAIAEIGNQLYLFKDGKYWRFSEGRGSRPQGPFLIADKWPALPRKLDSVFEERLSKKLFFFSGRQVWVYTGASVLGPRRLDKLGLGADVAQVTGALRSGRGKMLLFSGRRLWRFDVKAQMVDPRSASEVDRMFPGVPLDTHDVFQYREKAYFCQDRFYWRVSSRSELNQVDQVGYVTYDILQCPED
Structures can show the parent of a compound that is named as a salt.
Assign IC50 to each entry below.
Please respond with the number in nM and leave the unit unwritten.

Please give measured IC50 of the following entry: CC(C)c1ccc(Oc2ccc(S(=O)(=O)C3(C(=O)NO)CCOCC3)cc2)cc1
7

Please give measured IC50 of the following entry: Cl.O=C(NO)C1(S(=O)(=O)c2ccc(Oc3ccc(-n4cncn4)cc3)cc2)CCS(=O)(=O)CC1 [Example 53, Monohydrochloride]
92

Please give measured IC50 of the following entry: O=C(NO)C1(S(=O)(=O)c2ccc(Oc3ccccc3)cc2)CCS(=O)(=O)CC1
10

Please give measured IC50 of the following entry: O=C(NO)C1(S(=O)(=O)c2ccc(Oc3ccc(Cl)cc3)cc2)CCN(CCN2CCOCC2)CC1 [Example 89, Dihydrochloride]
0.4

Please give measured IC50 of the following entry: O=C(O)CN1CCC(C(=O)NO)(S(=O)(=O)c2ccc(Sc3ccccc3)cc2)CC1 [Example 87, Monohydrochloride]
13.9

Please give measured IC50 of the following entry: O=C(O)CCc1ccc(Oc2ccc(S(=O)(=O)C3(C(=O)NO)CCOCC3)cc2)cc1
114
